I'd appreciate it if you could supply pIC50 values for the items below.
biological target: EGFR L858R (Homo sapiens, UniProt P00533, L858R); test: EGFR biochemical assay (headed HTRF-based; method describes Z'-LYTE), L858R; conditions: Table 4
Sequence (P00533 25-1210 L858R): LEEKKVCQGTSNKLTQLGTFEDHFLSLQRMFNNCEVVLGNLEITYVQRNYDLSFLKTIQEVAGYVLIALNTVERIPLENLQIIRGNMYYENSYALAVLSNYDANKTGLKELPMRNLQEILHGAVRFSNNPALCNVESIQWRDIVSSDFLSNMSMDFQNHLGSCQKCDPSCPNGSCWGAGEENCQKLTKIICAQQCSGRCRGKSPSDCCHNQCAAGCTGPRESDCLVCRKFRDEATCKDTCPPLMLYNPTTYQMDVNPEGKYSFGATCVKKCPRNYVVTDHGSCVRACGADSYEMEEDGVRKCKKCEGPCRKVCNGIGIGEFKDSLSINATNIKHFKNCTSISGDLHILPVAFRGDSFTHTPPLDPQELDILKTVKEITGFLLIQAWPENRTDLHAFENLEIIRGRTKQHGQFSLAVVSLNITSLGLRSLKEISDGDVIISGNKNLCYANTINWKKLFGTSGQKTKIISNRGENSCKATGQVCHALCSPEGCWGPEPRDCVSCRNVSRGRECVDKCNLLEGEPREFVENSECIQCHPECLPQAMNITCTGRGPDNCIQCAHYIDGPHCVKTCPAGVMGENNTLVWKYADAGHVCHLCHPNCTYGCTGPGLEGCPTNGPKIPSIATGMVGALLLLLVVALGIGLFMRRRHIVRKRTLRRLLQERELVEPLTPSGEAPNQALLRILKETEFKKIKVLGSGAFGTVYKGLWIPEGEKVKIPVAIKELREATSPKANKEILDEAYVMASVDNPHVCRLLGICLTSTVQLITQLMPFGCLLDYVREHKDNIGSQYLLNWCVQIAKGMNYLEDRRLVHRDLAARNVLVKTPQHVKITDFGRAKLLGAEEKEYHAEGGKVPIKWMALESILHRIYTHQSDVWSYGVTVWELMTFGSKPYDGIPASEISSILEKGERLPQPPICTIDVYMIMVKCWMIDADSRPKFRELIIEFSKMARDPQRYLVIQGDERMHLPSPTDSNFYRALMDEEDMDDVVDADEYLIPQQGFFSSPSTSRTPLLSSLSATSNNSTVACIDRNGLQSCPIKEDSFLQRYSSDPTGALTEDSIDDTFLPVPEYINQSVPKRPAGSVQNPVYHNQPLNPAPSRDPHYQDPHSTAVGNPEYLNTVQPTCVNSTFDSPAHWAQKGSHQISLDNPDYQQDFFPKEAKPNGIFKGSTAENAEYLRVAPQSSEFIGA
# pIC50 is unitless: minus log10 of the molar concentration; print number only

Looking up C=CC(=O)N1CC[C@H](N2Cc3cnc(Nc4ccc(N5CCN(C)CC5)cc4)nc3N(C3CC(O)C3)C2=O)c2cccc(C)c21 (stereo partly shown) [Compound 152] , I found its pIC50 recorded as 8.93

Looking up C=CC(=O)N1CC[C@H](N2Cc3cnc(Nc4ccc(N5CCN(C)CC5)cc4)nc3N(C)C2=O)c2cccc(C)c21 [Compound 140] , I found its pIC50 recorded as 9.01

Looking up [2H]C1(N2Cc3cnc(Nc4cnn(CCO)c4)nc3N(C)C2=O)CCN(C(=O)C=C)c2ccccc21 (stereo not shown) [Compound 127] , I found its pIC50 recorded as 8.92

====

biological target: EGFR L858R/C797S Ba/F3 cells (Homo sapiens, UniProt P00533, C797S/L858R, cells depend on it); assay: Ba/F3 cell proliferation (Cell Titer Glo), EGFR L858R/C797S; assay type: cell-based, murine; details: 72 hours, Table 6
Sequence (P00533 whole entry C797S/L858R): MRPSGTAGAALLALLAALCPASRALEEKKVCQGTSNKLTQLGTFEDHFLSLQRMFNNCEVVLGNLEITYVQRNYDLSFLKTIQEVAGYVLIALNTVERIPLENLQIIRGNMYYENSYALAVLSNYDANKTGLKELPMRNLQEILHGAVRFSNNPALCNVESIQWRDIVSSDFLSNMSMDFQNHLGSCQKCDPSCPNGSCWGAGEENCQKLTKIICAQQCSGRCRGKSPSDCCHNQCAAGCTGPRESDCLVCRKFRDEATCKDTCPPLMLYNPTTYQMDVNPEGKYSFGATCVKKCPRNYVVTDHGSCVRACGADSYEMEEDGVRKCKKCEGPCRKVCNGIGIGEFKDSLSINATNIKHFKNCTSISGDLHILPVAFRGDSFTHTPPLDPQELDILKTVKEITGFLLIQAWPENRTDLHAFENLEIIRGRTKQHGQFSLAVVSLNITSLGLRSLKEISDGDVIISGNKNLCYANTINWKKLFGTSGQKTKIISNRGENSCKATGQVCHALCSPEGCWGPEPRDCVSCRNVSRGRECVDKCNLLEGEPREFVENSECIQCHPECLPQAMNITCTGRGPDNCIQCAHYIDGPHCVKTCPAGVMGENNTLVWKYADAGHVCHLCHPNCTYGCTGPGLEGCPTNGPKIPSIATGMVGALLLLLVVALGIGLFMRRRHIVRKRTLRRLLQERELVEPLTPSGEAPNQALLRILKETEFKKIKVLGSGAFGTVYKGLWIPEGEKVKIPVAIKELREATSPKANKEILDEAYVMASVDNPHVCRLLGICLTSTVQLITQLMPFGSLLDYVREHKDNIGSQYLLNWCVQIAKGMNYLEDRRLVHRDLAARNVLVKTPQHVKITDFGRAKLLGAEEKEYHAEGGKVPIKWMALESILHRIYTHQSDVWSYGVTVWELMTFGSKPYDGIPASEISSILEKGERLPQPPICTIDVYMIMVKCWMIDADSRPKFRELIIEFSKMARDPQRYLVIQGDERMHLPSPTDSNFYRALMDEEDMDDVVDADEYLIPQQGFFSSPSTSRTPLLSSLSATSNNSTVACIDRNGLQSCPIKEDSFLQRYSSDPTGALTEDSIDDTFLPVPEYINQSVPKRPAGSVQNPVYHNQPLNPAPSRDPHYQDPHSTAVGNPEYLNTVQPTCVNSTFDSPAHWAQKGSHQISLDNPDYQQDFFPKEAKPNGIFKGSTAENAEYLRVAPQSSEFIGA
experimental-endpoint: GI50

Looking up C=C(F)C(=O)N1CC[C@@H](N2Cc3cnc(Nc4cnn(CCO)c4)nc3N(C)C2=O)c2cccc(OC)c21 (single isomer, unassigned) , I found its GI50 recorded as ≥ 2.5 µM

Looking up C=CC(=O)N1CCC(N2Cc3cnc(Nc4ccc(N5CCN(C)CC5)c(C(F)(F)F)c4)nc3N(C)C2=O)c2ccccc21 (stereo not drawn) , I found its GI50 recorded as < 0.1 µM

Looking up C=CC(=O)N1c2ccccc2C(N2Cc3cnc(Nc4ccc(N5CCN(C)CC5)cc4)nc3N(C)C2=O)CC1(C)C (stereo not drawn) , I found its GI50 recorded as ≥ 2.5 µM

====

molecular target: EGFR L858R/T790M (Homo sapiens, UniProt P00533, L858R/T790M); assay: EGFR biochemical assay (headed HTRF-based; method describes Z'-LYTE), L858R/T790M; details: Table 4
Sequence (P00533 25-1210 T790M/L858R): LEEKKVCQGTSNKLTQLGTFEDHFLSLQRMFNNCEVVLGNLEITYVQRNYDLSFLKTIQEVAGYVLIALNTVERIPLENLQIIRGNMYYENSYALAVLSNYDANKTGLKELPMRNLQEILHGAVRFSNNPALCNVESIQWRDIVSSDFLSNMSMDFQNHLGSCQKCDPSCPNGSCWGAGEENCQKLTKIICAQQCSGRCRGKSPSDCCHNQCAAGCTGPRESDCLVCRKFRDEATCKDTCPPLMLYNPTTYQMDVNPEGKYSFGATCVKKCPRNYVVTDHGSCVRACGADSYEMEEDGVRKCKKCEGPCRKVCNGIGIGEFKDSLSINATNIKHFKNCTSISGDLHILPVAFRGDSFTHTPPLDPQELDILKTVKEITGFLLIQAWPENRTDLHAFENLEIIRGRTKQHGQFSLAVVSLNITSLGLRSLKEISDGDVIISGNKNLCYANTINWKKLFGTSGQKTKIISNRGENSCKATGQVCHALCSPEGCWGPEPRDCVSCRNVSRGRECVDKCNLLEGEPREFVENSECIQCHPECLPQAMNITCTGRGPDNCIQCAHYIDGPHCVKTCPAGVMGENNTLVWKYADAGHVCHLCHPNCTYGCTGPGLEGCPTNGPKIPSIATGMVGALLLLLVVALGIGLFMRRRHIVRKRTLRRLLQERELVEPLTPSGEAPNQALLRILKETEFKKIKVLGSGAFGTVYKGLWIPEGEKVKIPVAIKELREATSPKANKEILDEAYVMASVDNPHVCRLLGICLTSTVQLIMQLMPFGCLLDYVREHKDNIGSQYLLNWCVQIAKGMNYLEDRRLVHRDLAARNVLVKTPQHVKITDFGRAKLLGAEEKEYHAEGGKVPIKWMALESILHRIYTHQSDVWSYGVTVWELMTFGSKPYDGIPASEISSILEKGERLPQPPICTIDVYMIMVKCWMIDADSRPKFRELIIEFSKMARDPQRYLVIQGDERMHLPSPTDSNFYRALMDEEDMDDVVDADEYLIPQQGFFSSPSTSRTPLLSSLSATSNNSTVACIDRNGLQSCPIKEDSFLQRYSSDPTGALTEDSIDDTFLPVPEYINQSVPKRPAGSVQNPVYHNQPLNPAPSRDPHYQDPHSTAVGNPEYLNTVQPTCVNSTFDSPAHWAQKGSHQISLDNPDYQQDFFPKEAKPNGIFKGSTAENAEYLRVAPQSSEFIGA
I'd appreciate it if you could supply IC50 values for the items below.

Looking up C=CC(=O)N1CC[C@H](N2Cc3cnc(Nc4ccc(N5CCN(C)CC5)cc4)nc3N(C)C2=O)C[C@@H]1CO [Compound 146] , I found its IC50 recorded as > 1000 nM

Looking up C=CC(=O)N1CCC(N2Cc3cnc(Nc4ccc(N5CCN(C)CC5)cc4)nc3N(CC(F)F)C2=O)c2cccc(OC)c21 (stereo not shown) [Compound 134] , I found its IC50 recorded as > 1000 nM

Looking up C=CC(=O)N1CC[C@H](N2Cc3cnc(Nc4ccc(N5CCN(C)CC5)cc4)nc3N(C3CCOC3)C2=O)c2cccc(C)c21 (stereo partly shown) [Compound 151] , I found its IC50 recorded as > 1000 nM

Looking up C=CC(=O)N1CC[C@H](N2Cc3cnc(Nc4cnn(CCO)c4)nc3N(C)C2=O)[C@@H]2CCC[C@@H]21 [Compound 126] , I found its IC50 recorded as > 100 nM

====

molecular target: EGFR L858R/C797S Ba/F3 cells (Homo sapiens, UniProt P00533, C797S/L858R, cells depend on it); assay: Ba/F3 cell proliferation (Cell Titer Glo), EGFR L858R/C797S; type: cell-based, murine; settings: 72 hours, Table 6
I'd appreciate it if you could supply GI50 values for the items below.

Looking up C=CC(=O)N1CCC(N2Cc3cnc(Nc4ccc(N5CCN(C)CC5)cc4)nc3N(c3cccc(NC(C)=O)c3)C2=O)c2ccccc21 (centres unmarked) [Compound 051] , I found its GI50 recorded as 500 to 2500 nM

Looking up C/C=C/C(=O)N1CC[C@H](N2Cc3cnc(Nc4ccc(N5CCN(C)CC5)cc4)nc3N(C)C2=O)c2ccccc21 [Compound 091] , I found its GI50 recorded as 100 to 500 nM

Looking up C/C=C(\C#N)C(=O)N1CC[C@H](N2Cc3cnc(Nc4ccc(N5CCN(C)CC5)cc4)nc3N(C)C2=O)c2ccccc21 [Compound 101] , I found its GI50 recorded as ≥ 2500 nM

Looking up C=CC(=O)N1CCC(N2Cc3nnc(Nc4ccc(N5CCN(C)CC5)cn4)cc3N(C)C2=O)c2ccccc21 (centres unmarked) [Compound 105] , I found its GI50 recorded as ≥ 2500 nM

Looking up C=CC(=O)N1CCC(N2Cc3cnc(Nc4cccc(N5CCN(C)CC5)c4)nc3N(C)C2=O)c2ccccc21 (centres unmarked) [Compound 073] , I found its GI50 recorded as < 100 nM

Looking up CN1CCN(c2ccc(Nc3ncc4c(n3)N(C)C(=O)N([C@H]3CCN(C(=O)/C=C/CF)c5ccccc53)C4)cc2)CC1 [Compound 095] , I found its GI50 recorded as < 100 nM

Looking up C=CC(=O)N1CCC(N2Cc3cnc(Nc4ccc5c(c4)CCN(C)C5)nc3N(C)C2=O)c2ccccc21 (centres unmarked) [Compound 080] , I found its GI50 recorded as < 100 nM

Looking up C=CC(=O)N1CC[C@H](N2Cc3cnc(Nc4ccc(N5CCN(C)CC5)cc4)nc3N(C3CCOC3)C2=O)c2cccc(C)c21 (some centres unmarked) [Compound 151] , I found its GI50 recorded as < 100 nM

Looking up CN1C(=O)N(C2CN(C#N)c3ccccc32)Cc2cnc(Nc3cnn(CCO)c3)nc21 (centres unmarked) [Compound 106] , I found its GI50 recorded as ≥ 2500 nM

Looking up C=CC(=O)N1c2ccccc2[C@@H](N2Cc3cnc(Nc4ccc(N5CCN(C)CC5)cc4)nc3N(C)C2=O)C[C@@H]1C [Compound 135] , I found its GI50 recorded as < 100 nM

Looking up C=CC(=O)N1CCC(N2Cc3cnc(Nc4ccc(N5CCN(C)CC5)cc4)nc3N(C)C2=O)c2cccc(O)c21 (single isomer, unassigned) [Compound 156] , I found its GI50 recorded as < 100 nM

Looking up C=C1CC[C@H]2C[C@@H](N3Cc4cnc(Nc5ccc(N6CCN(C)CC6)cc5)nc4N(C)C3=O)CCN2C1=O [Compound 157] , I found its GI50 recorded as ≥ 2500 nM

Looking up C=CC(=O)N1CCC(N2Cc3cnc(Nc4ccc(CN5CCN(C)CC5)cn4)nc3N(C)C2=O)c2ccccc21 (centres unmarked) [Compound 070] , I found its GI50 recorded as < 100 nM

Looking up C=CC(=O)N1CC[C@H](N2Cc3cnc(Nc4cnn(CCO)c4)nc3N(C)C2=O)[C@@H]2CCC[C@@H]21 [Compound 126] , I found its GI50 recorded as ≥ 2500 nM
